- assay.protocol: yeast display, Sf9 membrane polyspecificity reagent, FACS + sequencing; frameworks hold sequencing errors
readout.label: polyreactivity (PSR sort gate)

residue.string: QVQLVESGGGLVQAGGSLRLSCAASGFIFHRYAMGWYRQAPGKERELVAAISSSGGSTYYADSVKGRFTISRDNAKNTVYLQMNSLKPEDTAVYYCAAEEEEFIYDYWGQGTQVTVSS
polyreactivity (PSR sort gate): high polyreactivity
--
residue.string: QVQLVESGGGLVQAGGSLRLSCAASGFIFKGNAMGWYRQAPGKERELVAAITNRGGGTYYADSVKGRFTISRDNAKNTVYLQMNSLKPEDTAVYYCAKAYTRPFHPYDYWGQGTQVTVSS
polyreactivity (PSR sort gate): high polyreactivity
--
residue.string: QVQLVESGGGLVQTGGSLRLSCAASGRIFRSYAMGWNRQAPGKERELVAAISGSGGSTYYADSVKGRFTISRDNAKNTVSLQMNSLKPEDTAVYYCTAGKVHPFSTRFYYWGQGTQVTVSS
polyreactivity (PSR sort gate): low polyreactivity
--
residue.string: QVQLVESGGGLVQAGGSLRLSCAASGRIFIRYAMGWYRQAPGKERELVAVITTGGSTNADSVKGRFTISRDNAKNTVYLQMNSVKPEDTAVYYCNAKVRVYTRGYFRYWYDYWGQGTQVTVSS
polyreactivity (PSR sort gate): high polyreactivity
--
residue.string: QVQLVESGGGLVQAGGRLRLSCSASGIILPKYTMGGYRQAPGKERELVAAITRSGGSTYYADSVKGRFTISRDNAKNTVYLHMISMKPEDTAVYYCAAERASFRYQDYYIYDYWGQGTEVTVSS
polyreactivity (PSR sort gate): high polyreactivity

I would be grateful if you could provide polyreactivity (PSR sort gate) for each of the following entries.
1. QVQLVESGGGLVQAGGSLRLSCAASGSIFYRNAMGWYRQAPGKERELVAAISASGGSTYYADSVKGRFTISRDNAKNTVYLQMNSLKPEDTAVYYCAASRYYSRYDYWGQGTQVTVSS
2. QVQLVESGGGLVQAGGSLRLSCAASGFTFYWYAMGWYRQAPGKEREFVAAIDQSGGSTYYADSVKGRFTISRDNAKNTVYLQMNSLKPEDTAVYYCAAAYLRYVSTQYHYDYWGQGTQVTVSS
3. QVQLVESGGGLVQAGGSLRLSCAASGSTFAGYVMGWYRQAPGKERELVAGISYRGGRTYYADSVKGRFTISRDNAKNTVYLQMNSLKPEDTAVYYCAAENAVTGTDGEYYYWGQGTQVTVSS

1: high polyreactivity; 2: low polyreactivity; 3: high polyreactivity

###

- assay.protocol: yeast display, Sf9 membrane polyspecificity reagent, FACS + sequencing; frameworks hold sequencing errors
readout.label: polyreactivity (PSR sort gate)

residue.string: QVQLVESGGGLVQAGGSLRLSCAASGRIFYGYTMGWYRQAPGKERELVADISWRGGSTSYADSVKGRFTISRDNAKNTVYLQMNSLKPEDTAVYYCAKRYRPESLYPFYNPYDYWGQGTQVTVSS
readout.label: polyreactivity (PSR sort gate)
measured.result: low polyreactivity

residue.string: QVQLVESGGGLVQAGGSLRLSCAASGLIFPVYAMGWYRQAPGKDREFVASIWRGGTTYYADSVKGRFTISRDNAKNTVYLQMNSLKPEDTAVYYCAAVVYSRGYYWGQGTQVTVSS
readout.label: polyreactivity (PSR sort gate)
measured.result: high polyreactivity

residue.string: QVQLVESGGGLVQAGGSLRLSCAASGSIFYTNAMGWYRQAPGKERELVAAIRWSGGRTYYADSVKGRFTISRDNAKNSVYLQMNSLKPEDTAVYYCNKVPRTPIPYKYGYWGQGTQVTVSS
readout.label: polyreactivity (PSR sort gate)
measured.result: high polyreactivity

residue.string: QVQLVESGGGLVQAGGSLRLSCAASGRIFDPYAMGWYRQAPGKERELVAAINIGGGTNYADSVKGRFTISRDNAKNTVYLQMNSLKPEDTAVYYCAAPVPAYQFYYRLKSFGRRYDHWGQGTQVTVSS
readout.label: polyreactivity (PSR sort gate)
measured.result: low polyreactivity
